System: S. aureus MSSA476
Construct: MSSA476
Design: species or system S. aureus MSSA476 (TSB) or V. cholerae SAD30 (LB); 384-well bacterial growth screen at 25 uM, OD600 relative to DMSO control
MEASUREMENT_SETUP: relative growth, OD600, TSB; 25 µM; inhibitor
In all, about 3,200 compounds went through this assay and about 75 (2%) showed an effect of 50% or more. The list comes from a sample in which strong results are over-represented; it also holds close analogues and randomly drawn compounds.
Please note: % of control remaining exactly at 80% is 0 (no). Only values below 80% get 1 (yes).

>  <COMPOUND>
C=CC(=O)N1CCC(c2ncc(C(=O)O)o2)CC1

>  <SYSTEM_NAME>
S. aureus MSSA476

>  <CAT>
0 (no)

$$$$
>  <COMPOUND>
Cc1cc(C(=O)CCl)c(C)n1-c1ccc(Cl)c(C(F)(F)F)c1

>  <SYSTEM_NAME>
S. aureus MSSA476

>  <CAT>
1 (yes)

$$$$
>  <COMPOUND>
Cc1ccc(C)c(NC(=O)C(C#N)=Cc2ccc3c(c2)OCCO3)c1

>  <SYSTEM_NAME>
S. aureus MSSA476

>  <CAT>
0 (no)

$$$$
>  <COMPOUND>
O=C(CCl)Cc1cc(Cl)cc(Cl)c1

>  <SYSTEM_NAME>
S. aureus MSSA476

>  <CAT>
1 (yes)

$$$$
>  <COMPOUND>
CCCc1ccc(-c2csc(NC(=O)CCl)n2)cc1

>  <SYSTEM_NAME>
S. aureus MSSA476

>  <CAT>
1 (yes)

$$$$
>  <COMPOUND>
C=CC(=O)N(CC)Cc1cn(C)nn1

>  <SYSTEM_NAME>
S. aureus MSSA476

>  <CAT>
0 (no)

$$$$
>  <COMPOUND>
COc1cc(C=C(C#N)C(=O)NC2CCCCC2)cc(Cl)c1O

>  <SYSTEM_NAME>
S. aureus MSSA476

>  <CAT>
0 (no)

$$$$
>  <COMPOUND>
COc1ccc(-c2csc(NC(=O)CCl)n2)c(O)c1

>  <SYSTEM_NAME>
S. aureus MSSA476

>  <CAT>
1 (yes)

$$$$
>  <COMPOUND>
Cc1nn(CC(C)C)c(Cl)c1C1CCCN1C(=O)C(C)Cl (centres unmarked)

>  <SYSTEM_NAME>
S. aureus MSSA476

>  <CAT>
0 (no)

$$$$
>  <COMPOUND>
C=CC(=O)NCc1nc(C2CC2)cs1

>  <SYSTEM_NAME>
S. aureus MSSA476

>  <CAT>
0 (no)

$$$$
>  <COMPOUND>
Cc1cc(C(=O)C(C)Cl)c(C)n1-c1ccc(OC(F)F)cc1 (centres unmarked)

>  <SYSTEM_NAME>
S. aureus MSSA476

>  <CAT>
0 (no)

$$$$
>  <COMPOUND>
C=CC(=O)Nc1cc(NC(=O)C2(OC)CCOC2)ccc1F (centres unmarked)

>  <SYSTEM_NAME>
S. aureus MSSA476

>  <CAT>
0 (no)

$$$$
>  <COMPOUND>
COc1cc(C)c(C=C(C#N)C(=O)Nc2ccc(C)cc2)cc1C(C)C

>  <SYSTEM_NAME>
S. aureus MSSA476

>  <CAT>
0 (no)

$$$$
>  <COMPOUND>
N#CC(C(=O)CCl)=C1Nc2ccccc2S1

>  <SYSTEM_NAME>
S. aureus MSSA476

>  <CAT>
1 (yes)

$$$$
>  <COMPOUND>
CCC(c1cc(Cl)cc(Cl)c1)N(C)C(=O)CCl (centres unmarked)

>  <SYSTEM_NAME>
S. aureus MSSA476

>  <CAT>
1 (yes)

$$$$
>  <COMPOUND>
Cc1cc(CN(C(=O)CCl)c2csnc2C)cs1

>  <SYSTEM_NAME>
S. aureus MSSA476

>  <CAT>
0 (no)

$$$$
>  <COMPOUND>
CSc1ccc(C=C(C#N)C(=O)Nc2cccc(Cl)c2C)cc1

>  <SYSTEM_NAME>
S. aureus MSSA476

>  <CAT>
0 (no)

$$$$
>  <COMPOUND>
N#CC(=Cc1ccc([N+](=O)[O-])o1)C(=O)NCc1ccco1

>  <SYSTEM_NAME>
S. aureus MSSA476

>  <CAT>
1 (yes)

$$$$
>  <COMPOUND>
NS(=O)(=O)c1ccc(CNC(=O)CCl)cc1

>  <SYSTEM_NAME>
S. aureus MSSA476

>  <CAT>
0 (no)

$$$$
